- TESTED TARGET: UniProtKB P29477
- Sequence (P29477 whole entry): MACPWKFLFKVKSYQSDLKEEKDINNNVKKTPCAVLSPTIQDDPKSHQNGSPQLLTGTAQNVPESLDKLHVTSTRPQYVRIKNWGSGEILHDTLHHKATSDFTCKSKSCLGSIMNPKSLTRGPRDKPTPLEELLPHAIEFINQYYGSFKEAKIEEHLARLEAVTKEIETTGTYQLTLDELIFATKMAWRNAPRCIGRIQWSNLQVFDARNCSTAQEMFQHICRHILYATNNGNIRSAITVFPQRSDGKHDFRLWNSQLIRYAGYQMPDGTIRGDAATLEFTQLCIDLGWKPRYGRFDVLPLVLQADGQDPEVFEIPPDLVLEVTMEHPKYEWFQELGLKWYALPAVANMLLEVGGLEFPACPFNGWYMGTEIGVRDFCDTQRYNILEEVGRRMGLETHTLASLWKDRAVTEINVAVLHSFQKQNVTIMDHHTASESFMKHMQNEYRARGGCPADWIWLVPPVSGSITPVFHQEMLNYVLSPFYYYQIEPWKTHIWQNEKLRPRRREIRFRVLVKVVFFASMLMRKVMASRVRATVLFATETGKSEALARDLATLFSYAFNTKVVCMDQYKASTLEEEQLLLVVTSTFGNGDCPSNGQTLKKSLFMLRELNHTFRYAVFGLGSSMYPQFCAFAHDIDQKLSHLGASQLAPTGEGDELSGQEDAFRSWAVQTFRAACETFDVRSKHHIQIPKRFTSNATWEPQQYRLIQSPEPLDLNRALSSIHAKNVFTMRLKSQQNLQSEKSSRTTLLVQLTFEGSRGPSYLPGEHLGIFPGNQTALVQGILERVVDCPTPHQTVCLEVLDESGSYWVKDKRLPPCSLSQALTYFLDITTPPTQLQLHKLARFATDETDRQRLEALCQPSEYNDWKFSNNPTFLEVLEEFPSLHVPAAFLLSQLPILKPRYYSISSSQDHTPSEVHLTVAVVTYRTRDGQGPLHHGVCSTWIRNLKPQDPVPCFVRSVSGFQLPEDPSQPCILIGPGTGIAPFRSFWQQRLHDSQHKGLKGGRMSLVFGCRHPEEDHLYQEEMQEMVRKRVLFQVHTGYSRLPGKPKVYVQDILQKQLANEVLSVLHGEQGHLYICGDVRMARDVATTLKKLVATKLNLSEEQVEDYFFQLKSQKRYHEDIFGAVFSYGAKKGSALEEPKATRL
OBSERVED PROPERTY: Ki (µM)
Numbers only; they are read as µM.

Challenge: I am curious: what Ki value has been reported for Nc1ccc2ccc(CNCCCc3cccc(F)c3)cc2n1 ?
Response given: 32.3
